# assay summary: TOX21_p53_BLA_p4_viability: Viability Assessment in the Tox21 HCT-116 p53 Agonism Beta-lactamase Assay, Phase 4 (AID 2283597);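 further: hits lower the luminescence signal meaning cytotoxicity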
Records with an inconclusive call do not appear. Calls of active or inactive are those of the source. How the source made its calls: active means hit-call score of the fitted dose curve at least 0.9, where 1 is the maximum; inconclusive means response in the unintended direction; inactive means score below 0.9.
Bench note: report the call from label 1 (active), label 0 (inactive)

Use the examples below as a reference point.
1. Cc1cc(C(C)(C)C)c(O)c(C(C)(C)C)c1 :: label 0
2. O=c1cc(-c2ccccc2)oc2ccc3ccccc3c12 :: label 0
3. CCOC(C)=O :: label 0
4. O=C(NO)c1ccccc1 :: label 0

Task: Dear colleague, could you share the recorded outcome for `O=C(Nc1ccc(Cl)c(Cl)c1)c1cc(Cl)cc(Cl)c1O` when you have a moment?
Output: label 1

Task: Dear colleague, could you share the recorded outcome for `Oc1c(Cl)ccc(Cl)c1Cl` when you have a moment?
Output: label 0

Task: Dear colleague, could you share the recorded outcome for `CC=O` when you have a moment?
Output: label 1

Task: Dear colleague, could you share the recorded outcome for `CCCCCCCCCCCCCC[n+]1ccccc1` when you have a moment?
Output: label 1

----------
# assay summary: ATG_AP_2_CIS: Attagene CIS-FACTORIAL HepG2 Assay for human Activator Protein 2 (AP-2) (AID 2282932)
# cond: HepG2 AP-2 cis-reporter, Attagene transcription factor profiling; actives raise or lower the signal unless noted
# Experimental: ATG_CIS is a cell-based, multiplexed-readout assay that uses HepG2, a human liver cell line, with measurements taken at 24 hours after chemical dosing in a 24-well plate.ATG_AP_2_CIS is one of 52 assay component(s) measured or calculated from the ATG_CIS assay. […] This assay endpoint, ATG_AP_2_CIS, was analyzed with bidirectional fitting relative to DMSO as the negative control and baseline of activity. […]
Activity calls are given as the source filed them. Rule for the calls: active = hit-call score of the fitted dose curve at least 0.9, where 1 is the maximum; inactive = score below 0.9.
readout: outcome

Consider the following illustrative entries.
1. CCCCCCCCCCCCCCCC(=O)OC :: inactive
2. CC(C)CCOCCC(C)C :: inactive
3. Cc1ccccc1C(OCCN(C)C)c1ccccc1 (stereo unspecified) :: inactive
4. CC(C)[C@@H]1CC[C@@H](C)C[C@H]1O :: inactive
5. CCO[Si](C)(C)OCC :: inactive

Task: GET /values?readout=outcome&item= CCCCC(CC)C(=O)O (stereo unspecified)
Output: inactive

Task: GET /values?readout=outcome&item= C=CC(C)(CCC=C(C)C)OC(C)=O (stereo unspecified)
Output: inactive

----------
# assay system: Transcription factor Sp1 (Homo sapiens)
# assay summary: ATG_Sp1_CIS: Attagene CIS-FACTORIAL HepG2 Assay for human Specificity Protein 1 (Sp1) (AID 2282961)
# cond: HepG2 Sp1 cis-reporter transcription, actives raise or lower the signal
Calls of active or inactive are those of the source. How the source made its calls: active means hit-call score of the fitted dose curve at least 0.9, where 1 is the maximum; inactive means score below 0.9.
Bench note: report the call from 1 = active, -1 = inactive

Use the examples below as a reference point.
1. c1ccc(CNc2ncnc3c2ncn3C2CCCCO2)cc1 (centres undefined) :: -1
2. C=CC(=O)OCC(CO)(COCC(COC(=O)C=C)(COC(=O)C=C)COC(=O)C=C)COC(=O)C=C :: 1
3. CCCCc1oc2ccccc2c1C(=O)c1cc(I)c(OCCN(CC)CC)c(I)c1 :: 1

Task: Dear colleague, could you share the recorded outcome for C=CC(C)(CCC=C(C)C)OC(C)=O (centres undefined) when you have a moment?
Output: -1

Task: Dear colleague, could you share the recorded outcome for `CC(C)C=O` when you have a moment?
Output: -1

Task: Dear colleague, could you share the recorded outcome for `CCCCCCCCCCCCCCC` when you have a moment?
Output: -1

Task: Dear colleague, could you share the recorded outcome for `O=S(=O)(O)c1ccc2cc(O)ccc2c1` when you have a moment?
Output: -1

Task: Dear colleague, could you share the recorded outcome for `O=C(CCCN1CCC(O)(c2ccc(Cl)cc2)CC1)c1ccc(F)cc1` when you have a moment?
Output: 1

----------
# assay summary: ATG_BRE_CIS: Attagene CIS-FACTORIAL HepG2 Assay for human Bone Morphogenetic Protein (BMP) Response Element (BRE) (AID 2282933)
# cond: HepG2 BMP response element reporter, Attagene transcription factor profiling; actives raise or lower the signal
The source made the active and inactive calls. Rule for the calls: active = hit-call score of the fitted dose curve at least 0.9, where 1 is the maximum; inactive = score below 0.9.
readout: AC50

Consider the following illustrative entries.
1. CCCCC(CC)C(=O)OCCOCCOCCOCCOC(=O)C(CC)CCCC (stereo not drawn) :: inactive
2. OCC(CO)(CBr)CBr :: inactive
3. CCCCCCCCCCCCCC[n+]1ccccc1 :: 1220 nM (active)
4. O=C(Nc1cccc([N+](=O)[O-])c1)c1cc2ccccc2cc1O :: 1170 nM (active)
5. CCCCCCCCCCCCCCCC(=O)OC :: inactive

Task: GET /values?readout=AC50&item= `CCOC=O`
Output: inactive

Task: GET /values?readout=AC50&item= `O=C(F)C(F)(F)C(F)(F)C(F)(F)C(=O)F`
Output: inactive

----------
# assay system: Transcription factor Sp1 (Homo sapiens) (UniProt P08047)
# Sequence (P08047 whole entry, looked up): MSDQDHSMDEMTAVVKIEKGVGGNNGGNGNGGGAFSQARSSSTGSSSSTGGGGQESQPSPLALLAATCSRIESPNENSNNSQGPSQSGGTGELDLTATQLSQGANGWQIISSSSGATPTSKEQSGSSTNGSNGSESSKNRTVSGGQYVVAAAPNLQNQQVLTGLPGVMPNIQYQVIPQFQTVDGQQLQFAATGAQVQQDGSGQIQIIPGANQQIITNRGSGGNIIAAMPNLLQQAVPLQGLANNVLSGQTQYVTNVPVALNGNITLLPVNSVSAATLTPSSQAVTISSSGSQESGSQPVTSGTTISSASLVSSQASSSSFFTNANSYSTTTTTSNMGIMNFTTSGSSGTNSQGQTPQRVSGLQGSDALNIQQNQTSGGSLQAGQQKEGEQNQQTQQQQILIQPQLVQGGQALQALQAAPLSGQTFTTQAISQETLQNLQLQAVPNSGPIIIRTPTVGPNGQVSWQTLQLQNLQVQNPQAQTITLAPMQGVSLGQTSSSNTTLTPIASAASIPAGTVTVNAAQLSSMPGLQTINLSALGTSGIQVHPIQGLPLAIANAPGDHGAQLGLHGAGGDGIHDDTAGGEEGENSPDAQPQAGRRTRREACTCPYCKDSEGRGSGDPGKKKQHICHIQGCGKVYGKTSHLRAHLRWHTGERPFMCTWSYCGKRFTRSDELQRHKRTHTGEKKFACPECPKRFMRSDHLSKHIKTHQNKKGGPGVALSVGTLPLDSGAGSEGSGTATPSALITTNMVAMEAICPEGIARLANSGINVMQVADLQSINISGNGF
# assay summary: ATG_Sp1_CIS: Attagene CIS-FACTORIAL HepG2 Assay for human Specificity Protein 1 (Sp1) (AID 2282961)
# cond: HepG2 Sp1 cis-reporter transcription, actives raise or lower the signal
The source made the active and inactive calls. How the source made its calls: active means hit-call score of the fitted dose curve at least 0.9, where 1 is the maximum; inactive means score below 0.9.
Bench note: report the call from Yes (active), No (inactive)

1. CCO[Si](CCC1CCC2OC2C1)(OCC)OCC (configuration not stated) :: No
2. O=C(O)C(=O)O :: No
3. COC(=O)C(F)(F)C(F)(F)C(F)(F)C(F)(F)C(F)(F)F :: No
4. CC1CCC(C(=O)O)CC1 (configuration not stated) :: No
5. CC1CNCC(C)O1 (configuration not stated) :: No

Here is the next item to consider.
Task: Dear colleague, could you share the recorded outcome for `O=C1c2ccccc2C(=O)c2c(O)c(O)cc(O)c21` when you have a moment?
Output: No

----------
# Read-out: Interleukin-8 (IL8), CXCL8 (gene 3576)
# assay summary: BSK_SAg_IL8: BioMAP Diversity Plus: SAg Assay for Interleukin-8 (IL8) Biomarker Activity (AID 2283094)
# cond: primary human HUVEC with PBMC; actives raise or lower the signal
Active and inactive are the calls of the source. How the source made its calls: active means hit-call score of the fitted dose curve at least 0.9, where 1 is the maximum; inactive means score below 0.9.
Bench note: report the call from T (active), F (inactive)

Use the examples below as a reference point.
1) Cc1[nH]nc2c1N=C(c1ccccc1Cl)c1cc([N+](=O)[O-])ccc1N2 :: T
2) CCCCC=O :: F
3) CC[N+](CC)(CC)Cc1ccccc1 :: F
4) CCCCCc1ccc(O)cc1 :: T
5) O=C(O)CCC(F)(F)C(F)(F)C(F)(F)C(F)(F)C(F)(F)C(F)(F)F :: F

Here is the next item to consider.
Task: Dear colleague, could you share the recorded outcome for `O=P(O)(O)CCC(F)(F)C(F)(F)C(F)(F)C(F)(F)C(F)(F)C(F)(F)C(F)(F)C(F)(F)F` when you have a moment?
Output: F

----------
# assay system: Estrogen receptor (Homo sapiens)
# assay summary: ATG_ERa_TRANS: Attagene TRANS-FACTORIAL HepG2 Assay for human Estrogen Receptor alpha (ERa) (AID 2282970)
# cond: HepG2 Attagene TRANS ERa GAL4 reporter, mRNA
# Method: ATG_TRANS is a cell-based, multiplexed-readout assay that uses HepG2, a human liver cell line, with measurements taken at 24 hours after chemical dosing in a 24-well plate.ATG_ERa_TRANS is one of 30 assay component(s) measured or calculated from the ATG_TRANS assay. […] This assay endpoint, ATG_ERa_TRANS, was analyzed in the positive analysis fitting direction relative to DMSO as the negative control and baseline of activity. […]
Inconclusive results are not listed. The source made the active and inactive calls. How the source made its calls: active means hit-call score of the fitted dose curve at least 0.9, where 1 is the maximum; inconclusive means response in the unintended direction; inactive means score below 0.9.
Bench note: report the call from active, inactive

1) Cc1ccc(N=Nc2c(O)ccc3ccccc23)c(C)c1 :: active

Task: Dear colleague, could you share the recorded outcome for `C=CC(=O)OCC(CO)(COCC(COC(=O)C=C)(COC(=O)C=C)COC(=O)C=C)COC(=O)C=C` when you have a moment?
Output: inactive

Task: Dear colleague, could you share the recorded outcome for `CCc1ccccc1O` when you have a moment?
Output: inactive

Task: Dear colleague, could you share the recorded outcome for `COC(=O)C(F)(F)C(F)(F)C(F)(F)F` when you have a moment?
Output: inactive

Task: Dear colleague, could you share the recorded outcome for `Nc1ccc(O)c(C(=O)O)c1` when you have a moment?
Output: active

Task: Dear colleague, could you share the recorded outcome for `CC(C)(c1ccc(Oc2ccc(N)cc2)cc1)c1ccc(Oc2ccc(N)cc2)cc1` when you have a moment?
Output: inactive

Task: Dear colleague, could you share the recorded outcome for `FC(F)(F)C(F)(F)C(F)(F)C(F)(F)I` when you have a moment?
Output: inactive

Task: Dear colleague, could you share the recorded outcome for `OCC(F)(F)C(F)(F)C(F)(F)C(F)(F)C(F)(F)C(F)(F)C(F)(F)C(F)(F)C(F)(F)C(F)(F)C(F)(F)F` when you have a moment?
Output: active

Task: Dear colleague, could you share the recorded outcome for `CCN(CC)CC` when you have a moment?
Output: inactive

Task: Dear colleague, could you share the recorded outcome for `CCOC(OCC)C(=O)c1ccccc1` when you have a moment?
Output: active

Task: Dear colleague, could you share the recorded outcome for `CCc1cccc(CC)c1N(COC)C(=O)CS(=O)(=O)O` when you have a moment?
Output: inactive

Task: Dear colleague, could you share the recorded outcome for `C=CC(=C)CC/C=C(\C)CCC=C(C)C` when you have a moment?
Output: inactive
